Tested on: 786-0 renal
assayText: NCI-60 one-dose screen, 48 h
measurementSetup: 10 µM unless noted
Compounds without any hit were thinned out: in the full panel of roughly 83,000, 20% have a hit. Calls of active or inactive are those of the source. The calls were made as follows: active = growth percent below 10; inactive = the rest.
Entry note: the call must match one of t (active), f (inactive)

Req: I'd appreciate the recorded outcome for `CCCCCCCCCC(=O)Oc1ccc(/C(=C(/C)c2ccccc2)c2ccc(OCCN3CCCC3)cc2)cc1` from this test.
Resp: t

Req: How did this test come out for `O=C(Nc1cccc2[nH]c(C(F)(F)F)nc12)c1ccc(Br)cc1F` ?
Resp: f

Req: # outcome recorded in this test, key = `Cc1ccc2c(c1)O/C(=C\c1cccc(OCC(=O)c3ccccc3)c1)C2=O`
Resp: f

Req: Please let me know the test result on file for `CC(C)C1=C[C@@]23CC[C@@H]4[C@](C)(CCC[C@@]4(C)C(=O)OCC#CCN4CCCC4)[C@H]2C[C@@H]1[C@H]1C(=O)OC(=O)[C@H]13` .
Resp: f

---

Tested on: NCI/ADR-RES ovarian
assayText: NCI-60 one-dose screen, 48 h (100 = growth as untreated, 0 = no growth, -100 = all killed)
measurementSetup: 10 µM unless noted
The panel holds about 83,000 compounds, 20% with a hit somewhere; the sample as a whole holds those more often.
Reported growth values follow for various compounds
Report only the number, with the unit % understood.

CCCCN(CCCC)Cc1c(C)[nH]c2cc(OC)ccc2c1=O	104
O=C1NC(=O)C(CC(=O)n2c(-c3ccccc3)nc3ccccc32)C(=O)N1	103
O=C(C[C@@H](C(=O)NCc1cccc(C(F)(F)F)c1)N1C(=O)[C@@H](N2C(=O)OC[C@@H]2c2ccccc2)[C@H]1/C=C/c1ccccc1)NC1CCN(Cc2ccccc2)CC1	69.8
Cc1nn(-c2nc3ccccc3[nH]2)c2c1C(c1ccc3c(c1)OCO3)CC(=O)N2 (stereo unspecified)	50.3
CC(=O)C1=C(O)C=C2Oc3c(C(=O)/C=C/c4cc(C(F)(F)F)cc(C(F)(F)F)c4)c(O)c(C)c(O)c3[C@]2(C)C1=O	-48.2

Please look at the following compound next.
Req: Provide measured growth value, entry: `CN1CCN(c2ccc3nc(-c4ccc5nc(-c6ccc(OCCC(C)(C)C)cc6)[nH]c5c4)[nH]c3c2)CC1`
Resp: 88

---

Test system: RXF 393 renal
assayText: NCI-60 one-dose screen, 48 h (100 = growth as untreated, 0 = no growth, -100 = all killed)
measurementSetup: 10 µM unless noted
This is part of a sample that, as a whole, favours compounds with a hit. Of some 83,000 tested, about 20% had one in any assay.
reportedProperty: growth (%)
Value expressed in %; do not type the unit.

Consider the following illustrative entries.
CC(C)Oc1nc2c(c(=O)n(C)c(=O)n2C)n1C	116
CS(=O)(=O)c1c(Nc2ccccc2)n[nH]c1N	114
COc1cc(-c2nc3ccccc3s2)ccc1NC(=O)COc1ccc(Cl)cc1	66.3
C/C(=C(/c1ccc(O)cc1)c1ccc(Cl)cc1)c1ccccc1	-79.3
COc1ccc(C2CC(=O)Nc3c2c(C)nn3-c2nc3ccccc3[nH]2)cc1 (stereo unspecified)	101
Cc1ccc(Nc2nc(N)nc(Nc3ccc4ccccc4c3)n2)cc1	27.3

Proceed to the following item.
Req: Please list growth recorded for the compound `CSc1nc(NCCCNc2ccnc3cc(Cl)ccc23)cc(-c2ccccc2)n1`
Resp: 60.9
